Test description: Solubility of the compound in water measured by UV-Visible spectral analysis
Type: physicochemical

- Chem smiles: "CC1=C(O)C(=O)C=C2C1=CC=C1[C@@]2(C)CC[C@@]2(C)[C@@H]3C[C@](C)(C(=O)O)CC[C@]3(C)CC[C@]12C"
  solubility [µg/mL]: 38.2
- Chem smiles: "CC1=C(O)C(=O)C=C2C1=CC=C1[C@@]2(C)CC[C@@]2(C)[C@@H]3C[C@](C)(C(=O)OCCOc4cnc5ccccc5c4)CC[C@]3(C)CC[C@]12C"
  solubility [µg/mL]: 28.1
